assay: Kinetic solubility in SGF, FaSSIF, FeSSIF and pure water (HPLC); conditions: pure water, water, thermodynamic from solid, Kinetic solubility, H2O, 1 hr
readout type: solubility kinetic at 1 h (µg/mL)
Entry rule: numbers only, all in µg/mL.

Sure, the documented solubility kinetic at 1 h for C=CC(=O)N(C)CCOc1c(N)ncnc1-c1cc(F)cc(NC(=O)c2ccc(C3CC3)cc2F)c1C is 4.6

###

experiment: Kinetic solubility in SGF, FaSSIF, FeSSIF and pure water (HPLC); settings: Fed-State Simulated Intestinal Fluid (FeSSIF), fessif, thermodynamic from solid, Kinetic solubility, 4 hr
readout type: solubility kinetic at 4 h
Put your answer as a value accompanied by its unit after it.

Note to self: solubility kinetic at 4 h recorded for C=CC(=O)N(C)CCOc1c(N)ncnc1-c1cc(F)cc(NC(=O)c2ccc(C3CC3)cc2F)c1C was 34 µg/mL

###

assay: physchem; conditions: fessif, thermodynamic from solid
readout type: solubility kinetic at 1 h (µg/mL)
Give the quantity in µg/mL, number only.

Lab note: C=CC(=O)N(C)CCOc1c(N)ncnc1-c1cc(F)cc(NC(=O)c2ccc(C3CC3)cc2F)c1C [Form J] gave solubility kinetic at 1 h of 130

###

assay: Kinetic solubility in SGF, FaSSIF, FeSSIF and pure water (HPLC); conditions: pure water, water, thermodynamic from solid, Kinetic solubility, H2O, 24 hr
readout type: solubility kinetic at 24 h (µg/mL)
Write the value in µg/mL as a bare number.

solubility kinetic at 24 h in this record for C=CC(=O)N(C)CCOc1c(N)ncnc1-c1cc(F)cc(NC(=O)c2ccc(C3CC3)cc2F)c1C : 4.3

###

experiment: physchem; details: fassif, thermodynamic from solid
readout type: solubility kinetic at 1 h (µg/mL)
Reply with just the number (in µg/mL).

Reported solubility kinetic at 1 h ( C=CC(=O)N(C)CCOc1c(N)ncnc1-c1cc(F)cc(NC(=O)c2ccc(C3CC3)cc2F)c1C [Form J] ) = 24

###

assay: Kinetic solubility in SGF, FaSSIF, FeSSIF and pure water (HPLC); settings: Fed-State Simulated Intestinal Fluid (FeSSIF), fessif, thermodynamic from solid, Kinetic solubility, 1 hr
readout type: solubility kinetic at 1 h (µg/mL)
Enter your answer as a number in µg/mL; do not include the unit.

Record summary for C=CC(=O)N(C)CCOc1c(N)ncnc1-c1cc(F)cc(NC(=O)c2ccc(C3CC3)cc2F)c1C : reported solubility kinetic at 1 h = 33
